- Test system: SF-268 CNS
- experiment: NCI tumour cell line growth inhibition, 48 h; in the data active = GI50 below about 0.43 µM; inactive = the rest
Your reply should match one of these outcome classes. active, inactive

Worked cases, answers included:
> print(dat)
                                   compound  class.label
1  O=C([CH-]C(=O)c1ccccc1)c1ccccc1.O=C([CH-]C(=O)c1ccccc1)c1ccccc1.[La+3].[OH-].[OH3+]     inactive
2       CN(C)CCN1C(=O)c2ccccc2N(C)c2ccccc21     inactive
3  C=C1CCC2C3(C)COC(c4ccc(N(C)C)cc4)OC3CCC2(C)C1C/C=C1/C(=O)OCC1O (configuration not stated)     inactive
4  COc1ccc2cc(C(=O)/C=C/c3ccc(Cl)cc3Cl)ccc2c1     inactive
5          Cc1cc2c(cc1C)N(C(=O)CCl)CC(=O)N2     inactive
6        CC(C)[C@H](N)C(=O)N1CCC[C@H]1B(O)O     inactive

We next turn to a different compound, shown below.
Query: Which outcome did this test record for the compound "COc1ccc2nc3cccc([N+](=O)[O-])c3c(NCCCCCC(=O)O)c2c1" ?
Result: active

Each recorded value in this set is attributed to PubChem BioAssay (NCI).
